Data origin, for the record: PubChem BioAssay AID602449

test summary: blockers of Ca2+-induced mitochondrial swelling – biochemical, isolated mouse mitochondria, absorbance, primary screen (AID 602449);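 note: 0% = DMSO wells given calcium and 100% = 1 mM EGTA wells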
measurement setup: 30 min, at 10 µM, stronger effect = higher value
Out of some 360,000 compounds screened, about 5,000 (1.4%) were called active. For the sample, actives were picked, then their nearest neighbours and some compounds at random.
observation type: inhibition (%)
Answer in %, number only, no unit symbol.

// known answers, use as guide
smiles_entry=Cc1ccc(C(=O)NC2CCN(C(=O)Nc3ccc(F)cc3)CC2)cc1 observation_type=inhibition unit_label=% readout_number=-0.9
smiles_entry=O=C(c1cc(-c2ccc(O)cc2)on1)N1CCOCC1 observation_type=inhibition unit_label=% readout_number=-1.3
smiles_entry=CSc1ccc(/C=N/NC(=O)c2cccc(Cl)c2)cc1 observation_type=inhibition unit_label=% readout_number=3

Read the entry `O=C(NCCCN1CCOCC1)c1cc(-c2cccc(O)c2)on1` and write its reported inhibition.
-0.1

Read the entry `COC(=O)c1ccc(Sc2ccc(F)cc2)c(N)c1` and write its reported inhibition.
-3

Read the entry `Cc1ccc(Sc2ccc(NC(=O)c3ccc(F)cc3)cc2C#N)cc1` and write its reported inhibition.
72.3
